System: Mus musculus
test-protocol: Maximal proliferation induced in the presence of the mitogen-Concanavalin A (stimulated blastogenesis) in mice cells dosed at 5 ug/mL
Format: functional
Set-up: unit not given here
Would you please tag the item 1 (yes) when its Proliferative response is 200 or above, and 0 (no) when it is below?

Here are 3 molecules together with their reported answers.
INSERT INTO measurements (molecule, assigned_label) VALUES
  ('Nc1ccc(N2CCCCC2)c(C(=O)c2ccc(Cl)cc2)c1', '0 (no)'),
  ('COc1ccc(C(=O)c2cc(N)ccc2N2CCC(C)CC2)cc1', '1 (yes)'),
  ('Cc1ccc(C(=O)c2cc(N)ccc2N2CCC(C)CC2)c(C)c1', '1 (yes)');

stdin: Is Proliferative response at least 200? Consider CC1CCN(c2ccc(N)cc2C(=O)c2ccc(Cl)cc2)CC1C (stereo unspecified)
stdout: 0 (no)

stdin: Can CC1CCN(c2ccc(N)cc2C(=O)c2ccccc2)CC1 be said to have Proliferative response at or above 200?
stdout: 0 (no)

stdin: Please indicate if the recorded Proliferative response for CC1CCN(c2ccc(N)cc2C(=O)c2ccccc2Cl)CC1 meets or exceeds 200.
stdout: 0 (no)

---

Test system: Mus musculus
test-protocol: Proliferation induced by the mitogen alone-Concanavalin A (control blastogenesis), in mice cells dosed at 5 ug/mL
Type: functional
Parameters: unit not given here
Below, each of the compounds is paired with its reported Proliferative response value.
Number only, no unit.

# annotated cases, reported Proliferative response shown
INSERT INTO assay_data (compound, readout_value) VALUES
  ('Cc1ccc(C(=O)c2cc(N)ccc2N2CCC(C)CC2)cc1', 179.7),
  ('Cc1ccc(C(=O)c2cc(N)ccc2N2CCC(C)CC2)c(C)c1', 279.6);

stdin: Identify measured Proliferative response obtained with Mus musculus for CC1CCN(c2ccc([N+](=O)[O-])cc2C(=O)c2ccc(Cl)cc2)CC1 .
stdout: 160.9

stdin: Please tell me the measured Proliferative response for CC1CCN(c2ccc(Cl)cc2C(=O)c2ccc(Cl)cc2)CC1 ; system: Mus musculus.
stdout: 55.6

stdin: Quote Mus musculus Proliferative response for entry CCCCC1CCN(c2ccc(N)cc2C(=O)c2ccc(Cl)cc2)CC1 .
stdout: 211.8

stdin: State Proliferative response (Mus musculus) of CC1CCN(c2ccc(N)cc2C(=O)c2ccccc2Cl)CC1 .
stdout: 150

stdin: With Mus musculus as the test system, provide measured Proliferative response for this compound: CC1CCN(c2ccc(N)cc2C(=O)c2ccc(Cl)cc2Cl)CC1
stdout: 280

stdin: Give Proliferative response for CC1CCN(c2ccccc2C(=O)c2ccc(Cl)cc2)CC1 tested on Mus musculus.
stdout: 92.7

stdin: Param request: Proliferative response | system Mus musculus | item Nc1ccc(N2CCC(Cc3ccccc3)CC2)c(C(=O)c2ccc(Cl)cc2)c1
stdout: 328

---

Reported Proliferative response values for the following molecules.
Species on record: Mus musculus
test-protocol: Proliferation induced by the mitogen alone-PWM (control blastogenesis), in Mice cells at a dose of 10 ug/mL
Assay type: functional
Design: unit not given here
Respond with the number and no other words.

stdin: Identify the reported Proliferative response for the following entry. Nc1ccc(N2CCC(O)CC2)c(C(=O)c2ccc(Cl)cc2)c1
stdout: 107.9

stdin: Specify measured Proliferative response for CC(C)(C)C1CCN(c2ccc(N)cc2C(=O)c2ccc(Cl)cc2)CC1 .
stdout: 114.8

stdin: Please list Proliferative response recorded for the molecule Nc1ccc(N2CCC(c3ccccc3)CC2)c(C(=O)c2ccc(Cl)cc2)c1
stdout: 95.7

stdin: Return the recorded Proliferative response value; entry: CC1CCN(c2ccc(N)cc2C(=O)c2cccc(Cl)c2)CC1
stdout: 102.8

stdin: Please indicate Proliferative response recorded for CCC1CCN(c2ccc(N)cc2C(=O)c2ccc(Cl)cc2)CC1
stdout: 88.7

---

Tested on: Mus musculus
test-protocol: Maximal proliferation induced in the presence of the mitogen-Concanavalin A (stimulated blastogenesis) in mice cells dosed at 5 ug/mL
Assay type: functional
Parameters: unit not given here
Quick list: Proliferative response per entry.

stdin: Identify the reported Proliferative response for the following entry. CC1CCCN(c2ccc(N(C)C)cc2C(=O)c2ccc(Cl)cc2)C1 (stereo unspecified)
stdout: 14.9

stdin: Consider the compound CNc1ccc(N2CCC(C)CC2)c(C(=O)c2ccc(Cl)cc2)c1 and give its recorded Proliferative response.
stdout: 21.3

stdin: Write down Proliferative response measured for item Cc1cc(C(=O)c2cc(N)ccc2N2CCC(C)CC2)cc(C)c1C
stdout: 206

---

Reported Proliferative response values are given for each entry in this list.
System: Mus musculus
test-protocol: Proliferation induced by the mitogen alone-Concanavalin A (control blastogenesis), in mice cells dosed at 5 ug/mL
Type: functional
Set-up: unit not given here
Answer with a bare number; do not write a unit.

INSERT INTO results (smiles, readout_value) VALUES
  ('CCC1CCN(c2ccc(N)cc2C(=O)c2ccc(Cl)cc2)CC1', 319.5),
  ('CNc1ccc(N2CCC(C)CC2)c(C(=O)c2ccc(Cl)cc2)c1', 18.2),
  ('Cc1cccc(C(=O)c2cc(N)ccc2N2CCC(C)CC2)c1', 389.9),
  ('COc1ccc(C(=O)c2cc(N)ccc2N2CCC(C)CC2)cc1', 322.1),
  ('COc1ccc(C(=O)c2cc(N)ccc2N2CCC(C)CC2)cc1OC', 137.4);

Here is another molecule to look at.
stdin: Output Proliferative response of CC(C)(C)C1CCN(c2ccc(N)cc2C(=O)c2ccc(Cl)cc2)CC1
stdout: 30.5

---

Recorded Proliferative response values for a group of molecules are listed next.
Test system: Mus musculus
test-protocol: Proliferation induced by the mitogen alone-Concanavalin A (control blastogenesis), in mice cells dosed at 5 ug/mL
Format: functional
Design: unit not given here

INSERT INTO assay_data (molecule, property_measured, readout_value) VALUES
  ('COc1ccc(C(=O)c2ccccc2N2CCC(C)CC2)cc1', 'Proliferative response', 127.5),
  ('CC1CCN(c2ccc(N)cc2C(=O)c2ccccc2)CC1', 'Proliferative response', 188.1),
  ('Nc1ccc(N2CCC(O)CC2)c(C(=O)c2ccc(Cl)cc2)c1', 'Proliferative response', 374.8),
  ('CC1CCN(c2ccc(N)cc2C(=O)c2cccc(Cl)c2)CC1', 'Proliferative response', 316),
  ('Nc1ccc(N2CCC(c3ccccc3)CC2)c(C(=O)c2ccc(Cl)cc2)c1', 'Proliferative response', 263.2);

stdin: Return value of Proliferative response for input Nc1ccc(N2CCCCC2)c(C(=O)c2ccc(Cl)cc2)c1 , no commentary.
stdout: 24.6

stdin: Quick one: give measured Proliferative response for CC1CCCCN1c1ccc(N)cc1C(=O)c1ccc(Cl)cc1 (configuration not stated)
stdout: 131.5

---

Test system: Mus musculus
test-protocol: Maximal proliferation induced in the presence of the mitogen-Concanavalin A (stimulated blastogenesis) in mice cells dosed at 5 ug/mL
Format: functional
Design: unit not given here
property-measured: Proliferative response
Number, no unit, nothing else.

Solved cases below.
INSERT INTO assay_data (smiles, property_measured, readout_value) VALUES
  ('CC1CCN(c2ccc(N)cc2C(=O)c2ccc(Br)cc2)CC1', 'Proliferative response', 123.4),
  ('CC1CCN(c2ccc(N)cc2C(=O)c2ccc(Cl)c(Cl)c2)CC1', 'Proliferative response', 151.5);

stdin: Report Proliferative response on Mus musculus for this entry: Cc1ccc(C(=O)c2cc(N)ccc2N2CCC(C)CC2)cc1
stdout: 283.2
